I'd appreciate it if you could supply ratio to parent values for the items below.
B1: Mouse OFD1, wild type [mouse] / NTAP-tagged TRAPPC12 [mouse] (parent complex)
chain 1: MAQSNMPHKSDVLSQDELRKKLYQTFKDRGVLDTLQTQLRNQLIHELMHPVLSGEVKPPSISVEGSALLIGASNSLVADHLQRCGYEYSLSVFFPESGLAKEKIFTMQDLLQLIRINPSSSLYKSLISGFDKENKKGFLMSFLKELAEYYQAKESCDAETQTSTTFPSQVSLAEKFQLIDAQFADGFPHRSKLESLETKLNEYKKEVQHQLQVEMCHKLKYFREAEITKVKMEERRKYEKELAEFQNEFERTCQAKNEALISQEKNSLERIKKHREMESKEIYAQRQLLLNDIALLRGREAELKERIETFELTQKLQEEKIKSEAEALERREQNLKNIEDTYDQKLKTELLKYQLELKDDYITRTNKLLEEERKNKEKTIHLQEELTVINSKKEELSKSVKHMKEVELELESVKAQFLAISKQNHLLNEKVREMSDYSQLKEEKVELQAQNKLLKLQLEETRNENLRLLDRITQPPPELVIFQKELQKTEKAMELEHKDFETHRQALEKQLQSEIENSAQLRTQIAEYDASVKRLTVQVAELKSQLKQTQIALENEVYRNPKHSLIHSLSGLLLSGKMAPHSEDKSGDFLNVPLEQNKVIAGAVMSRVPPYVNTATEASSPESDFEFIASSTKAKVRELEQEAERLEKAFRTYYQRATQNPSTSPQPAKSPPSVNSVAALRSIASSSMDRPVSAEDRVVSEQPLGDMLKEEMSDMSKAFMGSVVSRPRRTSSSTRLSSTPHPKSRRSLDNEMYLEGLGRLHMTSSSPLLDRVSASPAASPSPCPERTAQASPVPSRHSFSGLPEQNACLYQRQTETQDKSELSNVDKQSLKDEKFEPPFRWNKTEQFEAEGLHPAGDMPGIDFAVATQSSRLISYDYPSAVQSQTGEQDEQELWELHMKERRQREEQRHNERQEALERERRELGKLEQERRMIEESLKMEMEEELEKSVQDQKDKSAHCENTLEKYMKIIQQRQEESNADKSSKKSGKECSLVDMMMPSDKDESSPGFSHEEPDDMW
chain 2: METAKDGEQSPSEASPSAQAGPENIPEPMSREEESQPLYHEETIDLGGDEFASEENEPTSEGSHNFGDKLNEHMMESVLISDSPNNSEGDVGDLGCLQDVGEPPRGATDHRLPSSTDKEVVDTLSNGSETDGDDTPRDISDMTPDSRASLKEDSTQEDVTSMPALENAATEEVGPKDSLAPREEQTSEVSSNQSSSKDEPLPVCTIFSQATATPSQPHLFLQDGFESQMVKSPSFSSTSETSAKTPPPMVQPSPSLSTFFGDTMSSNSLASDFFDSFTTSTFISVSNPNAGSPVPEKLSSLTAPVGEKSPDSTSPSYSTRMDRSESGVSRAPLDVPESPKPFSQIQAVFAGSDDPFATALSMSEMDRRNDAWLPSQATREVLMSVATQQYGTVFIDKENLTMPGLKFDNIQGDAVKDLMLRFLGEKAAAKRQVLNASSVEQSFVGLKQLISCRNWRAAVDLCGRLLTAHGQGYGKNGLPTSHTTDSLQLWFVRLALLVKLGLFQNAEMEFEPFGNLDQPDLYYEYYPHVYPGRRGSMVPFSMRILHAELQQYLGNPQESLDRLHRVKTVCSKILANLEQGLAEDGGLSSVTQESRQASVQLWRSRLGRVLYSMANCLLLMKDYVLAVDAYLTVIKYYPEQEPQLLSGIGRILLQIGDIKTAEKYFQDVEKVTQKLDGLQGKIMVLMNRAFLYLGQNNFAEAHKFFTEILRMDPTNAVANNNAAVCLLYLGKLKDSLRQLEAMVQQDPRHYLHESVLFNLTTMYELESSRSMQKKQSLLEAVASKEGDSFNTQCLKLA

Variants of: B1
Test: co-IP (IP: anti-Myc, immunoblot); IP: anti-Myc; 0.5% input; parent: 1
Lab note: write the figure by itself, no unit.

Please report the measured ratio to parent for chain 1 G137S
0.91

Please report the measured ratio to parent for chain 1 S435R
0.98

Please report the measured ratio to parent for chain 1 A78T
0.97

Please report the measured ratio to parent for chain 1 S73F
0.39
